Test system: Caspase 3
experimental.details: Caspase 3 detection assay in SJSA1 cells
Assay type: cell-based
assay.conditions: 30 μM, SJSA1, 48 h, Caspase 3 activation over DMSO-treated cells
Bridge positions count the residues as written; N and C are the ends. Square brackets hold non-standard residues; d marks the D form. Peptide text beside a SMILES is read from it. R8 = C=CCCCCCC[C@@](C)(N)C(=O)O; S5 = C=CCCC[C@](C)(N)C(=O)O
test.readout: caspase 30 μM
Please give the numeric answer without any surrounding text.

# value lookup — system Caspase 3, readout caspase 30 μM, item CC(=O)N[C@@H](CC(C)C)C(=O)N[C@H](C(=O)N[C@@H](Cc1ccccc1)C(=O)N[C@]1(C)CCCCCCC=CCCC[C@@](C)(C(=O)N[C@@H](CO)C(=O)N[C@@H](C)C(=O)N[C@@H](C)C(N)=O)NC(=O)[C@H](CC(C)C)NC(=O)[C@H](C)NC(=O)[C@H](C(C)C)NC(=O)[C@H](Cc2c[nH]c3ccccc23)NC(=O)[C@H](Cc2ccc(O)cc2)NC(=O)[C@H](C)NC1=O)[C@@H](C)O [compound 196] (Ac-LTF[R8]AYWVAL[S5]SAA-NH2; staple 4-11)
26

Further, for CC[C@H](C)[C@H](NC(=O)[C@H](C)NC(=O)[C@H](C)NC(=O)[C@]1(C)CCCC=CCCCCCC[C@@](C)(NC(=O)[C@H](Cc2ccccc2)NC(=O)[C@@H](NC(=O)[C@H](CC(C)C)NC(C)=O)[C@@H](C)O)C(=O)N[C@@H](C)C(=O)N[C@@H](Cc2ccc(O)cc2)C(=O)N[C@@H](Cc2c[nH]c3ccccc23)C(=O)N[C@@H](C)C(=O)N[C@@H](C)C(=O)N[C@@H](CC(C)C)C(=O)N1)C(=O)N[C@@H](C(N)=O)C(C)C (single isomer, unassigned) [compound 77] ?
23

* * *

System: SJSA-1 cells
experimental.details: Cell lysis by peptidomimetic macrocycles (LDH release)
Format: cell-based
assay.conditions: 50 μM, SJSA-1, 1 h
Bridge positions count the residues as written; N and C are the ends. Square brackets hold non-standard residues; d marks the D form. Peptide text beside a SMILES is read from it. R8 = C=CCCCCCC[C@@](C)(N)C(=O)O; S5 = C=CCCC[C@](C)(N)C(=O)O
test.readout: 50 μM % Lysed cells (1 h LDH) (%)
Just the number please, in %, no unit attached.

Need 50 μM % Lysed cells (1 h LDH), item CC(=O)N[C@@H](CC(C)C)C(=O)N[C@H](C(=O)N[C@@H](Cc1ccccc1)C(=O)N[C@]1(C)CCCCCCC=CCCC[C@@](C)(C(=O)N[C@@H](C)C(=O)N[C@@H](Cc2c[nH]cn2)C(=O)N[C@@H](Cc2ccccc2)C(=O)N[C@@H](C)C(N)=O)NC(=O)[C@H](CC(C)C)NC(=O)[C@H](C)NC(=O)[C@H](C)NC(=O)[C@H](Cc2c[nH]c3ccccc23)NC(=O)[C@H](Cc2ccc(O)cc2)NC(=O)[C@H](C)NC1=O)[C@@H](C)O [compound 204] (Ac-LTF[R8]AYWAAL[S5]AHFA-NH2; staple 4-11)
0

Further, for CC(=O)N[C@@H](CC(C)C)C(=O)N[C@H](C(=O)N[C@@H](Cc1ccccc1)C(=O)N[C@]1(C)CCCCCCC=CCCC[C@@](C)(C(=O)N[C@@H](CO)C(=O)N[C@@H](C)C(=O)N[C@@H](C)C(N)=O)NC(=O)[C@H](CC(C)C)NC(=O)[C@H](CCC(N)=O)NC(=O)[C@H](C)NC(=O)[C@H](Cc2c[nH]c3ccccc23)NC(=O)[C@H](Cc2ccc(C(=O)O)cc2)NC(=O)[C@H](C)NC1=O)[C@@H](C)O (single isomer, unassigned) ?
7

Further, for CC[C@H](C)[C@H](NC(=O)[C@H](C)NC(=O)[C@H](C)NC(=O)[C@]1(C)CCCC=CCCCCCC[C@@](C)(NC(=O)[C@H](Cc2ccccc2)NC(=O)[C@@H](NC(=O)[C@H](CC(C)C)NC(C)=O)[C@@H](C)O)C(=O)N[C@@H](CCC(=O)O)C(=O)N[C@@H](Cc2c[nH]cn2)C(=O)N[C@@H](Cc2c[nH]c3ccccc23)C(=O)N[C@@H](C)C(=O)N[C@@H](CCC(N)=O)C(=O)N[C@@H](CC(C)C)C(=O)N1)C(=O)N[C@H](C)C(N)=O (single isomer, unassigned) ?
−1

Further, for CC(=O)N[C@@H](CCC(=O)O)C(=O)N[C@H](C(=O)N[C@@H](Cc1ccccc1)C(=O)N[C@]1(C)CCCCCCC=CCCC[C@@](C)(C(=O)N[C@@H](C)C(=O)N[C@@H](C)C(=O)N[C@@H](C)C(=O)N[C@@H](C)C(=O)N[C@@H](C)C(=O)N[C@H](C)C(N)=O)NC(=O)[C@H](CC(C)C)NC(=O)[C@H](CCC(N)=O)NC(=O)[C@H](C)NC(=O)[C@H](Cc2c[nH]c3ccccc23)NC(=O)[C@H](Cc2ccc(O)cc2)NC(=O)[C@H](CCC(=O)O)NC1=O)[C@@H](C)O (single isomer, unassigned) [compound 341] ?
0

Further, for CC(C)CC[C@@H]1NC(=O)[C@H](CCC(N)=O)NC(=O)[C@H](C)NC(=O)[C@H](Cc2c[nH]c3ccccc23)NC(=O)[C@H](Cc2ccc(O)cc2)NC(=O)[C@H](CCC(=O)O)NC(=O)[C@](C)(NC(=O)[C@H](Cc2ccccc2)NC(=O)[C@@H](NC(=O)[C@H](CC(C)C)NC(=O)C(C)(C)C)[C@@H](C)O)CCCCCCC=CCCC[C@@](C)(C(=O)N[C@@H](CO)C(=O)N[C@@H](C)C(=O)N[C@@H](C)C(N)=O)NC1=O ?
6

* * *

Record form. Attribute: 50 μM % Lysed cells (1 h LDH). Fill in for each entry.
Tested on: SJSA-1 cells
experimental.details: Cell lysis by peptidomimetic macrocycles (LDH release)
Type: cell-based
assay.conditions: 50 μM, SJSA-1, 1 h
Bridge positions count the residues as written; N and C are the ends. Square brackets hold non-standard residues; d marks the D form. Peptide text beside a SMILES is read from it. R8 = C=CCCCCCC[C@@](C)(N)C(=O)O; S5 = C=CCCC[C@](C)(N)C(=O)O
Just the number please, in %, no unit attached.

Need 50 μM % Lysed cells (1 h LDH), item CC(=O)N[C@@H](CC(C)C)C(=O)N[C@H](C(=O)N[C@@H](Cc1ccccc1)C(=O)N[C@]1(C)CCCCCCC=CCCC[C@@](C)(C(=O)N[C@@H](Cc2c[nH]cn2)C(=O)N[C@@H](Cc2c[nH]cn2)C(=O)N[C@@H](CC(C)C)C(=O)N[C@H](C)C(N)=O)NC(=O)[C@H](CC(C)C)NC(=O)[C@H](CCC(N)=O)NC(=O)[C@H](C)NC(=O)[C@H](Cc2c[nH]c3ccccc23)NC(=O)[C@H](Cc2ccc(O)cc2)NC(=O)[C@H](C)NC1=O)[C@@H](C)O [compound 43] (Ac-LTF[R8]AYWAQL[S5]HHL[dA]-NH2; staple 4-11)
−1

Further, for CCCC[C@H](NC(=O)[C@H](C)NC(=O)[C@H](C)NC(=O)[C@]1(C)CCCC=CCCCCCC[C@@](C)(NC(=O)[C@H](Cc2ccccc2)NC(=O)[C@@H](NC(=O)[C@H](CC(C)C)NC(C)=O)[C@@H](C)O)C(=O)N[C@@H](C)C(=O)N[C@@H](Cc2ccc(O)cc2)C(=O)N[C@@H](Cc2c[nH]c3ccccc23)C(=O)N[C@@H](C)C(=O)N[C@@H](C)C(=O)N[C@@H](CC(C)C)C(=O)N1)C(=O)N[C@@H](C(N)=O)C(C)C (single isomer, unassigned) ?
5

* * *

Test system: Caspase 3
experimental.details: Caspase 3 detection assay in SJSA1 cells
Format: cell-based
assay.conditions: 3 μM, SJSA1, 48 h, Caspase 3 activation over DMSO-treated cells
Bridge positions count the residues as written; N and C are the ends. Square brackets hold non-standard residues; d marks the D form. Peptide text beside a SMILES is read from it. R8 = C=CCCCCCC[C@@](C)(N)C(=O)O; S5 = C=CCCC[C@](C)(N)C(=O)O
Record form. Attribute: caspase 3 μM. Fill in for each entry.
Please give the numeric answer without any surrounding text.

Need caspase 3 μM, item CC(=O)N[C@@H](CCC(=O)O)C(=O)N[C@H](C(=O)N[C@@H](Cc1ccccc1)C(=O)N[C@]1(C)CCCCCCC=CCCC[C@@](C)(C(=O)N[C@@H](CO)C(=O)N[C@H](C(=O)N[C@@H](CO)C(N)=O)C(C)C)NC(=O)[C@H](CC(C)C)NC(=O)[C@H](CCC(N)=O)NC(=O)[C@H](C)NC(=O)[C@H](Cc2c[nH]c3ccccc23)NC(=O)[C@H](Cc2ccc(O)cc2)NC(=O)[C@H](C(C)C)NC1=O)[C@@H](C)O [compound 130] (Ac-ETF[R8]VYWAQL[S5]SVS-NH2; staple 4-11)
2

Further, for CC[C@H](C)[C@H](NC(=O)[C@H](C)NC(=O)[C@H](C)NC(=O)[C@]1(C)CCCC=CCCCCCC[C@@](C)(NC(=O)[C@H](Cc2ccccc2)NC(=O)[C@@H](NC(=O)[C@H](CC(C)C)NC(C)=O)[C@@H](C)O)C(=O)N[C@@H](C)C(=O)N[C@@H](Cc2ccc(O)cc2)C(=O)N[C@@H](Cc2c[nH]c3ccccc23)C(=O)N[C@@H](C)C(=O)N[C@@H](CCC(N)=O)C(=O)N[C@@H](CC(C)C)C(=O)N1)C(=O)N[C@@H](C)C(N)=O (single isomer, unassigned) [compound 65] ?
6
